Hey, just so you know, these numbers are from patent US9309212B2.

Entries and their IC50 values follow.
Target: EBNA1 (Epstein-Barr virus, UniProt P03211)
Sequence (P03211 whole entry): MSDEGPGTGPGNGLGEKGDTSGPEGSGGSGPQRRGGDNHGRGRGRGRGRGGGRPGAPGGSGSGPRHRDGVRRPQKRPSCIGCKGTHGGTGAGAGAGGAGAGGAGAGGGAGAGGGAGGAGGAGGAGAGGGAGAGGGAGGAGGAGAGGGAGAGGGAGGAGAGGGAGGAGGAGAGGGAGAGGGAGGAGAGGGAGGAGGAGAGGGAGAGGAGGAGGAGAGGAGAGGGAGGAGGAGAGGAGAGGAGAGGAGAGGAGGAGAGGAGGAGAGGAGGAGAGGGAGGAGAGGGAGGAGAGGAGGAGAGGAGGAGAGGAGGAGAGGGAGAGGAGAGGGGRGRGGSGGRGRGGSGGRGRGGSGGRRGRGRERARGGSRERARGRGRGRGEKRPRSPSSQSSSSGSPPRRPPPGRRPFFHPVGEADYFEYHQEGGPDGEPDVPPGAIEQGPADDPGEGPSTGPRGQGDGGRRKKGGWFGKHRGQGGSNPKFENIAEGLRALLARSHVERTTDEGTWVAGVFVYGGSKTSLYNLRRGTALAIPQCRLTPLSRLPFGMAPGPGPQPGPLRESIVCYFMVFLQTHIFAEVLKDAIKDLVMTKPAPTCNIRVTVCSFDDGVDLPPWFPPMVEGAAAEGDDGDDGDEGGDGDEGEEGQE
Experiment: cell-based assay (EBNA1 transcription derepression assay, Qp-luciferase reporter in 293T cells)
Conditions: final concentration range 125 μM-2 nM, 125000 nM = not active
Procedure: EBNA1 Transcription Derepression Assay. 293T cells were seeded in 10-cm plates in DMEM media with 10% FBS. Following a 18-hour incubation at 37° C. to allow cells to adhere, cells at 50-70% confluence were transfected using 40 μL LIPOFECTAMINE (INVITROGEN) per plate. […] Cells were incubated at 37° C. for 48 hours, harvested and analyzed for luciferase activity using the PROMEGA STEADY-GLO luciferase system and read using a PERKIN ELMER 2104 Multilabel Reader. […]
Answer format: numeric, µM implied, no suffix.

// map O=C(Nc1ccc2occc2c1)c1cccnc1 [VKE01463] to recorded IC50 (system: EBNA1 (Epstein-Barr virus, UniProt P03211)) 1.26

// map CC(C)(C)c1ccc(NC(=O)c2ccc3occc3c2)cc1 [VKE01469] to recorded IC50 (system: EBNA1 (Epstein-Barr virus, UniProt P03211)) 0.0627

// map Cc1csc(NC(=O)c2ccc3occc3c2)n1 [VKE01474] to recorded IC50 (system: EBNA1 (Epstein-Barr virus, UniProt P03211)) 0.0602

// map CCCCc1ccc(C(=O)Nc2ccc3occc3c2)cc1 [VKE01460] to recorded IC50 (system: EBNA1 (Epstein-Barr virus, UniProt P03211)) 0.0123

// map CCc1ccccc1C(=O)Nc1ccc2occc2c1 [VKE01461] to recorded IC50 (system: EBNA1 (Epstein-Barr virus, UniProt P03211)) 1.02

// map Cc1cc(NC(=O)c2ccc3occc3c2)ccc1Cl [VKE01470] to recorded IC50 (system: EBNA1 (Epstein-Barr virus, UniProt P03211)) 0.042

// map CCc1ccccc1C(=O)Oc1ccc2occ([N+](=O)[O-])c2c1 [VKE01450] to recorded IC50 (system: EBNA1 (Epstein-Barr virus, UniProt P03211)) 9.02

// map O=C(Nc1ccncc1)c1ccc2occc2c1 [VKE01473] to recorded IC50 (system: EBNA1 (Epstein-Barr virus, UniProt P03211)) 20.8

###

Target: EBNA1 (Epstein-Barr virus)
Assay: cell-based assay (EBNA1 transcription derepression assay, Qp-luciferase reporter in 293T cells)
Conditions: final concentration range 125 μM-2 nM, 125000 nM = not active
Entries and their IC50 values follow.
Answer format: numeric, µM implied, no suffix.

entry_smiles=O=[N+]([O-])c1coc2ccc(OCc3ccccc3)cc12 value_kind=IC50 measurement=27.2
entry_smiles=O=C(Nc1ccc2occc2c1)c1ccncn1 value_kind=IC50 measurement=1.66
entry_smiles=O=C(Nc1ccc(F)c(F)c1)c1ccc2occc2c1 value_kind=IC50 measurement=0.847
entry_smiles=O=C(Nc1cccc(Cl)c1)c1ccc2occc2c1 value_kind=IC50 measurement=0.813
entry_smiles=O=C(Nc1ccccn1)c1ccc2occc2c1 value_kind=IC50 measurement=0.152
entry_smiles=O=C(Oc1ccc2occ([N+](=O)[O-])c2c1)c1ccc(F)cc1Cl value_kind=IC50 measurement=3.28
entry_smiles=O=C(Oc1ccc(Cl)cc1)c1ccc2occc2c1 value_kind=IC50 measurement=9.06

Kindly consider the entry below.
// map O=C(Nc1ccc2occc2c1)c1ccccc1C(F)(F)F to recorded IC50 (system: EBNA1 (Epstein-Barr virus)) 6.52
